Hello, the source for this data is PubChem BioAssay (NCI), in case you need it.

# System: SK-MEL-28 melanoma
# Experiment Notes: NCI-60 one-dose screen, 48 h (100 = growth as untreated, 0 = no growth, -100 = all killed)
# Study Conditions: 10 µM unless noted
Compounds without any hit were thinned out: in the full panel of roughly 83,000, 20% have a hit. The source made the active and inactive calls. How the source made its calls: active means growth percent below 10; inactive means the rest.
Measurement Name: growth

Smiles: C#Cc1ccc(C(=O)NCc2ccc(/C=C/C(=O)c3nccn3C)cc2)cc1
Measurement Name: growth
Value Reported: 48.8% (inactive)
//
Smiles: O=C1[C@H]2Cc3c([nH]c4ccccc34)[C@@H](c3ccc(Br)cc3)N2C(=O)CN1C1CCN(CC2CCCCC2)CC1
Measurement Name: growth
Value Reported: -95.5% (active)
//
Smiles: CN1CCN(Cc2ccc(NC(=O)c3cncc(C#Cc4cnc5ccc(N6CCN(C)CC6)nn45)c3)cc2C(F)(F)F)CC1
Measurement Name: growth
Value Reported: 82% (inactive)
//
Smiles: N/C(=N\C(N)=N\c1nc2ccccc2s1)c1ccncc1Cl
Measurement Name: growth
Value Reported: 58.3% (inactive)
//
Smiles: COc1cc(OC)c(/C=C/S(=O)(=O)Cc2ccc(OC)c(NC(=O)CCC(=O)NO)c2)c(OC)c1
Measurement Name: growth
Value Reported: 60% (inactive)

----------
# Tested on: OVCAR-4 ovarian
# Experiment Notes: NCI-60 one-dose screen, 48 h (100 = growth as untreated, 0 = no growth, -100 = all killed)
# Study Conditions: 10 µM unless noted
This is part of a sample that, as a whole, favours compounds with a hit. Of some 83,000 tested, about 20% had one in any assay.

Molecule: Cc1ccc(NC(=O)c2ccc(CN3CCN(C)CC3)cc2)cc1Oc1ccc(-c2[nH]nc3ncnc(N)c23)cc1
growth / %: 99.1
//
Molecule: C#CC(=O)N(c1ccc(OC)cc1OC)C(C(=O)NCC(=O)OCC)c1cccs1 (centres undefined)
growth / %: 116
//
Molecule: CCOC(=O)c1c(Nc2ccccc2)nn2c(-c3ccccc3)ccnc12
growth / %: 95.9
//
Molecule: Cc1ccc2sc3c(c2c1)OC(N)=C(C#N)C3c1ccc(Cl)cc1 (centres undefined)
growth / %: 91.1
//
Molecule: O=C(Nc1ccc(Br)cc1)Nc1nc2ccc([N+](=O)[O-])cc2s1
growth / %: -10.6
//
Molecule: NS(=O)(=O)c1ccc(-n2cc(CN3CCCCC3)nn2)cc1
growth / %: 105
//
Molecule: CCCCCCCn1cc2c(NCCc3ccccc3)ncnc2n1
growth / %: 101
//
Molecule: COc1cc(OC)c(/C=C/S(=O)(=O)Cc2ccc(OC)c(NCC(=O)NO)c2)c(OC)c1
growth / %: 45.3
//
Molecule: CC1(C)CC[C@]2(C(=O)O)CC[C@]3(C)C(=CC[C@@H]4[C@@]5(C)CC/C(=N\OCCC#N)C(C)(C)[C@@H]5CC[C@]43C)[C@@H]2C1
growth / %: 82.6

----------
# Tested on: IGROV1 ovarian
# Experiment Notes: NCI-60 one-dose screen, 48 h
# Study Conditions: 10 µM unless noted
Compounds without any hit were thinned out: in the full panel of roughly 83,000, 20% have a hit. Active and inactive are the calls of the source. Rule for the calls: active = growth percent below 10; inactive = the rest.
Outcome codes: yes (1) (active), no (0) (inactive)

Compound: CN1CCN(Cc2ccc(NC(=O)c3cncc(C#Cc4cnc5ccc(N6CCN(C)CC6)nn45)c3)cc2C(F)(F)F)CC1
Group: yes (1)
--
Compound: CCOC(=O)c1c(Nc2ccccc2)nn2c(-c3ccccc3)ccnc12
Group: no (0)
--
Compound: COc1cc(OC)c(/C=C/S(=O)(=O)Cc2ccc(OC)c(NCC(=O)NO)c2)c(OC)c1
Group: yes (1)
--
Compound: CCc1cccc(NC(=O)CNc2cc(S(=O)(=O)N(C)C)cc(C)c2C)c1
Group: no (0)
--
Compound: Nn1c(N/N=C/c2nc3ccccc3s2)n[nH]c1=S
Group: no (0)
--
Compound: O=S(=O)(NC1c2ccccc2C[C@H]1O)c1ccc(Cl)cc1Cl (stereo not given in full)
Group: no (0)
--
Compound: O=C(O)c1ccc(-n2cc(CNc3cc(F)c(F)c(F)c3)c(-c3ccc(F)cc3)n2)cc1
Group: no (0)
--
Compound: COc1c(N2CC3CCCNC3C2)c(F)cc2c(=O)c(C(=O)N/N=C/c3ccccc3)cn(C3CC3)c12 (stereo not given)
Group: no (0)
--
Compound: CC1(COc2ccc3ncc(C#Cc4cncc(C(=O)Nc5cccc(C(F)(F)F)c5)c4)n3n2)COC1
Group: no (0)
--
Compound: O=C1Nc2ccccc2/C1=C/c1ccc(CO)n1-c1ccc(Cl)cc1
Group: no (0)
--
Compound: O=C(Nc1cccc(Cl)c1)Nc1nc2ccc([N+](=O)[O-])cc2o1
Group: no (0)
--
Compound: N/C(=N\C(N)=N\c1nc2ccccc2s1)c1cccc(F)c1
Group: no (0)
--
Compound: COc1ccc(/C=N/NC(=O)c2cn(C3CC3)c3c(OC)c(N4CC5CCCNC5C4)c(F)cc3c2=O)cc1 (stereo not given)
Group: no (0)
--
Compound: CN1c2ccccc2Sc2cc(C=C(C#N)C#N)ccc21
Group: no (0)
--
Compound: COc1ccc2[nH]cc(-c3csc4nc(-c5ccccc5)cn34)c2c1
Group: no (0)
--
Compound: NC(N)=Nc1ccc(Oc2cccc(Nc3ccc(Cl)c(C(F)(F)F)c3)c2)cn1
Group: yes (1)
--
Compound: C=C(C=O)[C@@H]1CC[C@]2(CO)CC[C@]3(C)[C@H](CC[C@@H]4[C@@]5(C)CCCNC(C)(C)[C@@H]5CC[C@]43C)[C@@H]12
Group: no (0)
--
Compound: Cc1ccc(NC(=S)NNC(=S)Nc2ccc(C)cc2)cc1
Group: no (0)
--
Compound: O=C(CSc1nc2ccccc2c(=O)n1-c1ccccc1)Nc1cccc(C(=O)/C=C/c2ccccc2)c1
Group: no (0)
--
Compound: Cc1ccc(-c2nnc(SCc3ccc(O)c4ncccc34)n2-c2ccccc2)cc1
Group: yes (1)

----------
# Tested on: DU-145 prostate
# Experiment Notes: NCI-60 one-dose screen, 48 h (100 = growth as untreated, 0 = no growth, -100 = all killed)
# Study Conditions: 10 µM unless noted
This is part of a sample that, as a whole, favours compounds with a hit. Of some 83,000 tested, about 20% had one in any assay.

Molecule: NS(=O)(=O)c1ccc(Nc2cc(-c3ccccc3)nc(SCC(=O)c3ccccc3)n2)cc1
growth / %: 103
--
Molecule: COc1cc2c(cc1OC)C(Sc1ccc(F)cc1)c1c(nc(N)c(C#N)c1N)O2 (configuration not stated)
growth / %: -93.3
--
Molecule: Cc1cc(C(NC(=O)CCCCCNc2cccc3c2C(=O)N(C2CCC(=O)NC2=O)C3=O)c2ccc3c(c2)OC(F)(F)O3)c(O)c2ncccc12 (configuration not stated)
growth / %: 51.9
--
Molecule: CCNC(=O)N1CCc2cc(OC)c(OCCc3ccc(OC)cc3)cc2C1c1ccc(OC)cc1C (configuration not stated)
growth / %: 16.2
--
Molecule: O=C(CSc1nnc(-c2ccc(Cl)cc2)n1-c1ccccc1)Nc1ccc(Br)cc1
growth / %: 41.2
--
Molecule: CCO/C=N/C1=C(C#N)C(c2ccc(Cl)cc2)c2sc3c(C)cccc3c2O1 (configuration not stated)
growth / %: 19.2
--
Molecule: CCOC(=O)c1c(NC(=O)c2ccccc2C(F)(F)F)sc2c1CCC(=O)C2
growth / %: 95.3
--
Molecule: C=CC(=O)N1CCC=C(c2cc3c(N[C@H](C)c4ccccc4)ncnc3[nH]2)C1
growth / %: 42.9
--
Molecule: Nc1cc(F)ccc1NC(=O)c1ccc(NC(=O)C/C=C/c2cccnc2)cc1
growth / %: 23.7
--
Molecule: COc1ccc(NC2=C(Cl)C(=O)c3nc(C)ccc3C2=O)cc1OC
growth / %: 93
--
Molecule: O=C(NNc1nc2cc(F)ccc2n2c(CN3CC4CNCC4C3)ccc12)c1cnccn1 (configuration not stated)
growth / %: 27.5
--
Molecule: Cc1ccc(N2C(=O)/C(=C/C=C/c3ccco3)SC2=S)cc1
growth / %: 100
--
Molecule: COc1ccc(C2CC(c3cccc(Nc4nc(Cl)nc5cc(OC)c(OC)cc45)c3)=Nc3c(N)nc(N)nc3N2)cc1 (configuration not stated)
growth / %: 88.8
--
Molecule: COC(=O)c1[nH]nc2c1C1(C(=O)N(C)c3ccccc31)C(C#N)=C(N)O2 (configuration not stated)
growth / %: 102
--
Molecule: CC(=O)Nc1cccc(Nc2nc(N[C@H](C)c3ccccc3)c3ccccc3n2)c1
growth / %: 65
--
Molecule: Cc1ccc2c(c1)C(=O)/C(=C/c1cccc(F)c1)S2
growth / %: 111
--
Molecule: CC1(C)[C@@H](O)CC[C@]2(C)[C@H]3CC[C@@H]4[C@H]5[C@H](C(=O)/C=C\c6ccc([N+](=O)[O-])cc6)CC[C@]5(O)CC[C@@]4(C)[C@]3(C)CC[C@@H]12
growth / %: 58
--
Molecule: COc1ccc(COc2ccc(/C=C3\C(=O)Nc4ccccc43)cc2OC)cc1
growth / %: 109
--
Molecule: N#Cc1cccc(CN2CCC3=C(C2)C(=O)N(Cc2ccc(Cl)cc2)C2=NCCCN23)c1
growth / %: 31.2
--
Molecule: N#Cc1cccc(NC(=O)c2cc(-c3ccc(F)cc3F)ccc2O)c1
growth / %: 20.9
--
Molecule: Cc1c(Cl)cccc1S(=O)(=O)Nc1ccc2c(c1)C(=O)N(C1CCC(=O)NC1=O)C2=O (configuration not stated)
growth / %: 108
--
Molecule: Cc1ccc(NC(=O)N[C@@H](Cc2cc(F)cc(F)c2)C(=O)NC2C(=O)N3C[C@H](O)C[C@H]3C(=O)N3CCCC[C@H]3C(=O)N[C@@H](CO)C(=O)N3C[C@H](C)C[C@H]3C(=O)O[C@H]2C)c(F)c1 (some centres not stated)
growth / %: 37.7
--
Molecule: Cc1cc(C)c2sc(=O)n(Cc3nnc(SCCC(=O)O)o3)c2n1
growth / %: 108
--
Molecule: O=C(CSc1nnc(-c2ccc(Cl)cc2)n1-c1ccccc1)Nc1cccc(Cl)c1
growth / %: 64.6
--
Molecule: Fc1ccc(-c2cc3nc(C(Cl)Cl)nc(-c4ccco4)n3n2)cc1
growth / %: -48.2
--
Molecule: Cc1nc(-c2ccccc2O)ccc1C(=O)N=Nc1c(O)[nH]c2ccc(Br)cc12
growth / %: 113
--
Molecule: CC/C(=C/c1c(O)cccc1OC)c1ccc2c(OC)cccc2[o+]1
growth / %: 112
--
Molecule: O=C(Nc1cccc(Cl)c1)Nc1nc2ccc([N+](=O)[O-])cc2o1
growth / %: 26.8
--
Molecule: Nc1ncc(-c2ccc3ncnc(N4CCc5cc(F)c(Cl)cc54)c3c2)cn1
growth / %: 10.8
--
Molecule: C=C(C)[C@@H]1CC[C@]2(C(=O)NCCCCCN(CCC#N)CCC#N)CC[C@]3(C)[C@H](CC[C@@H]4[C@@]5(C)CCC(=O)C(C)(C)[C@@H]5CC[C@]43C)[C@@H]12
growth / %: 96.2
--
Molecule: Cc1ccc(CSc2nc(-c3ccc(Cl)cc3)c(C#N)c(N3CCOCC3)n2)cc1
growth / %: 105
--
Molecule: c1ccc(C(c2nc3ncncc3[nH]2)N2CSc3nc4ncncc4n3C2)cc1 (configuration not stated)
growth / %: 34.1
--
Molecule: COc1ccc(C(=O)CSc2nc3c(c(Nc4ccc(S(N)(=O)=O)cc4)n2)CCCC3)cc1
growth / %: 93.6
--
Molecule: COc1ccc(Cn2cc3c(c2-c2cc(OC)c(OC)c(OC)c2)CCc2c(CN4CCOCC4)noc2-3)cc1
growth / %: 20
--
Molecule: NC(N)=Nc1ccc(Oc2cccc(Nc3ccc(Cl)c(C(F)(F)F)c3)c2)cn1
growth / %: -93.4
--
Molecule: O=S(=O)(Nc1ccc2c(c1)OCO2)c1ccc(-c2cnc(C3CC3)o2)cc1
growth / %: 44.6
--
Molecule: Cc1ccc(-c2cc3nc(C(Cl)Cl)nc(-c4ccco4)n3n2)cc1
growth / %: -24.3
